- experimental_protocol: Coupled enzyme assay (ADH, with and without MSAD): hydratase and hydratase/decarboxylase activity and product profile of Cg10062 and variants
- Format: biochemical
- conditions_used: ACA 0.5 mM, pH 8; enzyme final concentration differs per variant (0.025-1.50 mg mL^−1), rates not directly comparable
- Method: Steady-state kinetics were carried out using a Molecular Devices SpectraMax iD3 multi-mode microplate reader and Shimadzu UV2600 spectrophotometer. All assays were carried out in triplicate at 25° C. in 100 mM sodium phosphate pH 8.0 with a final volume of 200 μL, unless otherwise specified. The reduction of acetaldehyde by NADH-dependent alcohol dehydrogenase (ADH) was monitored by following the oxidation of NADH at 340 nm (ε=6220 M^−1 cm^−1). […]
recorded_metric: Rate in the presence of MSAD (µM/min)
Field format: number, assumed µM/min, no unit text.

-- ask Item Y103A: Cg10062 variant with Y103A mutation, SEQ ID NO: 30 and 68 (protein, Cg10062(Y103A) from Corynebacterium glutamicum codon-optimized for Escherichia coli) PTYTCWSQRIRISREAKQRIAEAITDAHHELAHAPKYLVQVIFNEVEPDSYFIAAQSASENHIWVQATIRSGRTEKQKEELLLRLTQEIALILGIPNEEVWVAITEIPGSNMTEYGRLLMEPGEEEKWFNSLPEGLRERLTELEGSSE has what recorded Rate in the presence of MSAD?
-- reply 38
